# assayed.system: human adenosine A1 receptor (Homo sapiens, UniProt P30542)
# Construct: expressed in transfected cells; host or cells: HEK293 cells infected with BacMam (the same paragraph also labels the preparation CHO-hA1)
# Sequence (P30542 1-326): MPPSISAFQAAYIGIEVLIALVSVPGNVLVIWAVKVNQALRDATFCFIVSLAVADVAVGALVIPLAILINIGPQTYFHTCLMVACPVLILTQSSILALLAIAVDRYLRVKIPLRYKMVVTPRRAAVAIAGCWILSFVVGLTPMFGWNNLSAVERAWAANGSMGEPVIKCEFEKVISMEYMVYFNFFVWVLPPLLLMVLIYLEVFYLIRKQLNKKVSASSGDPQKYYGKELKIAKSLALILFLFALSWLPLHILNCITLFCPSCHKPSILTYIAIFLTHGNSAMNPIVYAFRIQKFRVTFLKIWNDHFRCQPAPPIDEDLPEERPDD
# assay.details: Inhibition binding assay, human adenosine A1 receptor membranes, [3H]DPCPX
# measurement.setup: 1 nM [3H]DPCPX, 25° C., 1 h; IC50 converted to Ki with Cheng-Prusoff; read-out: A1 pKi (converted)
quantity.name: Ki (nM)

Below: 2 compounds and their reported Ki.
• Cc1cc(-c2c(-c3ccccc3)nc(N)n3c(=O)n(CCc4ccc(F)cc4)nc23)cc(C)n1 [Example 1-83] = 251
• COC(=O)c1cc(-c2c(-c3ccccc3)nc(N)n3c(=O)n(CCC(F)(F)F)nc23)cc(C)n1 [Example 2-52] = 200

1: Cc1cc(-c2c(-c3ccccc3)nc(N)n3c(=O)n(CCN4CCOCC4)nc23)cc(C)n1 [Example 2-99]
2: Cc1cc(-c2c(-c3ccccc3)nc(N)n3c(=O)n(CCC(F)(F)F)nc23)cc(Cl)n1 [Example 2-48]
3: COc1cccc(Cn2nc3c(-c4cc(C)nc(C)c4)c(-c4ccccc4)nc(N)n3c2=O)n1 [Example 1-6]
4: Cc1cc(-c2c(-c3ccccc3)nc(N)n3c(=O)n(C[C@@H]4CN(C(=O)OC(C)(C)C)CCO4)nc23)cc(C)n1 [Example 2-69]
5: Cc1cc(-c2c(-c3ccccc3)nc(N)n3c(=O)n(CCc4ccccc4)nc23)cc(C(F)(F)F)n1 [Example 1-88]
Exam item: Put the items in sequence by Ki, from largest down. Please express your ranking as an ordered list of the labels.
Marked response: 1, 4, 3, 5, 2
(1: 794 nM, 4: 398 nM, 3: 200 nM, 5: 100 nM, 2: 6.31 nM)
